Data credit: PubChem BioAssay AID248

Test system: L1210 leukemia ip in BDF1 mice, survival T/C
assay_details: NCI In Vivo Anticancer Drug Screen. Data for tumor model L1210 Leukemia (intraperitoneal) in B6D2F1 (BDF1) mice
applied_conditions: endpoint: mean survival time; dose: 200.0 mg/kg/injection; schedule: Q01DX001 (ip); vehicle: saline with Tween-80; higher = longer survival
Inconclusive results and toxic doses are left out.
Kindly supply the reported T/C values for the records listed here.

Enquiry: Which value of T/C has been reported for `CCOC(=O)C(=O)Nc1ccc(Cl)cc1` in the records?
Return: 96 % of control

Enquiry: Which value of T/C has been reported for C1CCC2C(C1)CCCC2C(C1CCCC2CCCCC21)C1CCCC2CCCCC21 (centres undefined) in the records?
Return: 90 % of control

Enquiry: Which value of T/C has been reported for `O=c1ccn(Cc2cccc(Oc3ccccc3)c2)c(=O)[nH]1` in the records?
Return: 93 % of control

Enquiry: Which value of T/C has been reported for `Nc1nc(-c2ccc([N+](=O)[O-])cc2)cc(=O)[nH]1` in the records?
Return: 93 % of control

Enquiry: Which value of T/C has been reported for `O=C(CS(=O)(=O)O)Nc1ccccc1` in the records?
Return: 97 % of control

Enquiry: Which value of T/C has been reported for `CSc1ccc(NC(=O)c2ccc(Cl)cc2Cl)cc1` in the records?
Return: 89 % of control

Enquiry: Which value of T/C has been reported for `Nc1ncnc2nc(-c3ccc(CNC(=O)CCc4ccc(S(=O)(=O)F)cc4)cc3)[nH]c12` in the records?
Return: 89 % of control

Enquiry: Which value of T/C has been reported for `CCCCCCC(CCCCCC)c1ccccc1` in the records?
Return: 93 % of control

Enquiry: Which value of T/C has been reported for `O=C1c2ccccc2C(=O)N1CCCCCN1C(=O)c2ccccc2C1=O` in the records?
Return: 96 % of control
